For each record, write down the corresponding IC50.
Target: EGFR (Homo sapiens (Human), UniProt P00533)
Sequence (P00533 25-1210): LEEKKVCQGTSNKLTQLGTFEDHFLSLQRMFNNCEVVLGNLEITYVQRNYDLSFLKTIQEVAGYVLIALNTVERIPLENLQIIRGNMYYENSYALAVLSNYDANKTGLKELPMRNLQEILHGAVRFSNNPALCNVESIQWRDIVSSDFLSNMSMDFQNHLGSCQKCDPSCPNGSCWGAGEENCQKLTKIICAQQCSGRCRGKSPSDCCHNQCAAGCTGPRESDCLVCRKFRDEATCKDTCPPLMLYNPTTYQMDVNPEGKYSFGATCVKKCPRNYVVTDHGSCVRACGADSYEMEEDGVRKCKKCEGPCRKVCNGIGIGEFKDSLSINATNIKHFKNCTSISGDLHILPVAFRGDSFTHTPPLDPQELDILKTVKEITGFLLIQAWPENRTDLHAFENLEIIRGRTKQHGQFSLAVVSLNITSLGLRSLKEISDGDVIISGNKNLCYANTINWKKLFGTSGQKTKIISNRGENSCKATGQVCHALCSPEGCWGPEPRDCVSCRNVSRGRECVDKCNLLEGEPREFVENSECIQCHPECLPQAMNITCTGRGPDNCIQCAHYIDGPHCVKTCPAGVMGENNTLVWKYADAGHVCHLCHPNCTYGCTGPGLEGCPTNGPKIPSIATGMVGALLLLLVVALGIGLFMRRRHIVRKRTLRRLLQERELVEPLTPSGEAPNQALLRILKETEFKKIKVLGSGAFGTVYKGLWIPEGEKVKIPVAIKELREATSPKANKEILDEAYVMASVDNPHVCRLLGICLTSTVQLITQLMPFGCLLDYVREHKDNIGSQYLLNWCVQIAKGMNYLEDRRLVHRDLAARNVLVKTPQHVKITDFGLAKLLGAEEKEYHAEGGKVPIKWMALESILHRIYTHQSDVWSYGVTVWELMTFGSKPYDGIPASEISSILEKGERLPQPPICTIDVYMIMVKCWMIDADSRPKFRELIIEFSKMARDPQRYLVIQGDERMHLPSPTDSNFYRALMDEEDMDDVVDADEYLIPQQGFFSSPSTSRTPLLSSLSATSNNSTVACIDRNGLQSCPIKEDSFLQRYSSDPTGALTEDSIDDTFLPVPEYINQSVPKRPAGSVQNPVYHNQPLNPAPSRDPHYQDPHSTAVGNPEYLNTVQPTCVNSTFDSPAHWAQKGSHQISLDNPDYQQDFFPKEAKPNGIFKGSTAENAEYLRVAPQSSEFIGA
Experiment: ErbB Enzyme Assay (HTRF KinEASE-TK), Assay 3
Type: biochemical
Details: EGFR enzyme
Entry rule: numbers only, all in µM.

IC50 for C=CC(=O)N1[C@@H]2CC[C@H]1CC(c1ccc3ncnc(Nc4ccc(Oc5ccc6c(c5)ncn6C)c(C)c4F)c3n1)C2 (mixture of isomers) [Example 143] is 1.85

IC50 for C=CC(=O)N1CCN(c2nc3c(Nc4ccc(Oc5ccc6cn(C)nc6c5)c(C)c4)ncnc3cc2OC)CC1 [Example 158] is 0.321

IC50 for C=CC(=O)N1CCC2CN(c3nc4c(Nc5ccc(Oc6ccn7ncnc7c6)c(Cl)c5F)ncnc4cc3OC)CC21 (stereo not drawn) [Example 38] is 0.153

IC50 for C=CC(=O)N1[C@@H]2CC[C@H]1[C@H](c1ccc3ncnc(Nc4ccc(Oc5ccn6ncnc6c5)c(C)c4F)c3n1)C2 (single isomer, unassigned) [Example 228] is 4.55
